tested on: P. falciparum D10 (mefloquine resistant); experiment: Plasmodium falciparum growth inhibition assay, drug-resistant line D10; assay type: cell-based; conditions: D10, read-out: EC50 (nM), P. falciparum D10
observation type: EC50 (nM)

>>> df
                                   molecule  observation_type  measured
0  CC(C)(C)C(=O)OCOP(=O)(OCOC(=O)C(C)(C)C)C1CCCN(O)C1=O (stereo not shown)              EC50      1430

====

tested on: P. falciparum strain 3D7; assay: Plasmodium falciparum growth inhibition assay (Picogreen DNA content, three-day incubation); assay type: cell-based; details: Plasmodium falciparum, 3D7, 72 h; P. falciparum growth, presence of 1mM pyruvate; mean ± s.e.m.; read-out: Parasite EC50 + pyruvate
observation type: EC50

                                   compound  measured
0  CC(C)(C)C(=O)OCOP(=O)(OCOC(=O)C(C)(C)C)C1CC(O)N(O)C1=O (centres unmarked) [POM-SF]    250 nM
1  CC(C)(C)C(=O)OCOP(=O)(OCOC(=O)C(C)(C)C)C1CCCN(O)C1=O (centres unmarked) [POM-HEX]    910 nM

Hello, the source for this data is paper PMC8482815, in case you need it.
